TESTED_TARGET: A. fumigatus UGM (Aspergillus fumigatus)
Construct: 8x His-tag (TEV-cleavable) (cleaved yes); made in house; host or cells: E. coli BL21 Turbo (DE3)
Sequence (Q4W1X2 whole entry): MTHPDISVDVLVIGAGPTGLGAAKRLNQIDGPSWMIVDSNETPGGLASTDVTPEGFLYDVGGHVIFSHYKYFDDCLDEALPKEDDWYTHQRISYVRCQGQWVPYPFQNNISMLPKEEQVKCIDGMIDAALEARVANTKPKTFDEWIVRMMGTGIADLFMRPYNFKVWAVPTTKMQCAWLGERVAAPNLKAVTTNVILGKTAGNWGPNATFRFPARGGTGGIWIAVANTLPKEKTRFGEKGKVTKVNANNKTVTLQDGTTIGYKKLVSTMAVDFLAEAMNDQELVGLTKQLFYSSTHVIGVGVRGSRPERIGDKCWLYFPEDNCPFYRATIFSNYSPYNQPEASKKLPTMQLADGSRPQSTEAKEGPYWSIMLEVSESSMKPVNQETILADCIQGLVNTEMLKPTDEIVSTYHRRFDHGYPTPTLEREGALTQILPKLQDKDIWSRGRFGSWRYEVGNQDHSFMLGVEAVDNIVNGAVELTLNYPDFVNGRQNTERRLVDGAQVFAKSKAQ
ASSAY_PROCEDURE: biochemical
Type: biochemical
TEST_CONTEXT: read-out: Inhibition > 50 %
In this section, each of the compounds is paired with its reported inhibition at 200 µM.

COMPOUND	TESTED_TARGET	inhibition at 200 µM
Cc1nc(-c2ccc(OCC(C)C)c(C#N)c2)sc1C(=O)O [Febuxostat, reference compound]	A. fumigatus UGM (Aspergillus fumigatus)	> 50%
COc1ccc([C@@H]2CC(=O)c3c(O)cc(O)cc3O2)cc1O [(2S)-hesperetin]	A. fumigatus UGM (Aspergillus fumigatus)	> 50%
Cc1ccc(C(=O)Nc2ccc(S(=O)(=O)O)c3cc(S(=O)(=O)O)cc(S(=O)(=O)O)c23)cc1NC(=O)c1cccc(NC(=O)Nc2cccc(C(=O)Nc3cc(C(=O)Nc4ccc(S(=O)(=O)O)c5cc(S(=O)(=O)O)cc(S(=O)(=O)O)c45)ccc3C)c2)c1 [Suramin hexasodium, reference compound]	A. fumigatus UGM (Aspergillus fumigatus)	< 50%
